system: SU-DHL-10; test: NHL cell line viability/apoptosis 384-well flow cytometry assay; type: cell-based; conditions: Homo sapiens, SU-DHL10; SU-DHL-10 (DLBCL), 120 hours; read-out: IC50 (% Viable Cells)
reported-endpoint: IC50 (nM)

{"columns": ["query-smiles", "units-of-measure", "observed-result"],
 "data": [
  ["O=C1CC[C@H](N2C(=O)c3cccc(NCc4ccc(CN5CC(N6CCOCC6)C5)cc4F)c3C2=O)C(=O)N1", "nM", 6.1]
]}

* * *

tested on: SU-DHL-16; experiment: NHL cell line viability/apoptosis 384-well flow cytometry assay; type: cell-based; conditions: Homo sapiens; SU-DHL-16 (DLBCL), 120 hours; read-out: IC50 (% Viable Cells)
pIC50: −log10 of the molar value.
reported-endpoint: pIC50

{"columns": ["query-smiles", "reported-endpoint", "observed-result"],
 "data": [
  ["O=C1CC[C@H](N2C(=O)c3cccc(NCc4ccc(CN5CC(N6CCOCC6)C5)cc4F)c3C2=O)C(=O)N1", "pIC50", 6.81]
]}
